Where do these numbers come from? They come from patent US11702404B2.

Assay protocol: Microsomal stability, human liver microsomes (predicted hepatic clearance)
Experimental parameters: predicted from in vitro microsomal stability data
Here, each record is paired with measured Predicted Hepatic Clearance (Pred. Cl.) data.

Use the examples below as a reference point.
O=C(O)c1ccc2nc(Cc3cc(F)c(-c4ccnc(OCc5ccc(Cl)cc5F)n4)cc3F)n(C[C@@H]3CCO3)c2c1 <1.83 mL/min/kg
N#Cc1ccc(COc2cccc(-c3ccc(Cc4nc5ccc(C(=O)O)cc5n4CC4(n5ccnn5)CC4)c(F)c3)n2)c(F)c1 <1.83 mL/min/kg

Answer with the recorded Predicted Hepatic Clearance (Pred. Cl.) for the compound listed here: "COCCn1c(Cc2cc(F)c(-c3cccc(OCc4ccc(C#N)cc4OC)n3)cc2F)nc2ccc(C(=O)O)cc21"
<1.83 mL/min/kg
